Just for reference, the supplement of paper PMC8253809 is where these values come from.

Test system: DIPGX37 (H3.3 K27M diffuse intrinsic pontine glioma line)
Experiment: growth inhibition (% activity, log2 RLU normalised to DMSO / staurosporine); higher = more growth inhibition
Settings: 33 µM
Item-by-item account of growth inhibition

Molecule	Scale Unit	growth inhibition
CC1(C)O[C@@H]2C[C@H]3[C@@H]4CCC5=CC(=O)C=C[C@]5(C)[C@H]4[C@@H](O)C[C@]3(C)[C@]2(C(=O)CO)O1	%	2.84
NC(=O)C(c1ccccc1)(c1ccccc1)[C@@H]1CCN(CCc2ccc3c(c2)CCO3)C1	%	2.86
N=C(N)c1ccc(OCCCCCOc2ccc(C(=N)N)cc2)cc1	%	-2.71
NC[C@@H]1O[C@H](O[C@H]2[C@@H](O)[C@H](O[C@@H]3[C@@H](O)[C@H](N)C[C@H](N)[C@H]3O[C@H]3O[C@H](CO)[C@@H](O)[C@H](O)[C@H]3N)O[C@@H]2CO)[C@H](N)[C@@H](O)[C@@H]1O	%	2.89
CN/C(=N\CCSCc1nc[nH]c1C)NC#N	%	1.91
C[C@@H]1CN(c2c(F)c(F)c3c(=O)c(C(=O)O)cn(C4CC4)c3c2F)C[C@H](C)N1	%	-8.88
Clc1ccc(C(Cn2ccnc2)OCc2ccsc2Cl)c(Cl)c1 (stereo not drawn)	%	-2.6
Cc1cc2c(s1)Nc1ccccc1N=C2N1CCN(C)CC1	%	3.63

----------
System: SUDIPGVI (diffuse intrinsic pontine glioma line)
Test: growth inhibition (% activity, log2 RLU normalised to DMSO / staurosporine); higher = more growth inhibition
Settings: 33 µM
Below, each entry is listed alongside its reported growth inhibition.
Parameter: growth inhibition (%)

Mol	Scale Unit	Observed
CC(=O)[C@H]1CC[C@H]2[C@@H]3CC=C4C[C@@H](O)CC[C@]4(C)[C@H]3CC[C@]12C	%	-0.676
CC[C@H]1OC(=O)[C@H](C)[C@@H](O[C@H]2C[C@@](C)(OC)[C@@H](O)[C@H](C)O2)[C@H](C)[C@@H](O[C@@H]2O[C@H](C)C[C@H](N(C)C)[C@H]2O)[C@](C)(O)C[C@@H](C)C(=O)[C@H](C)[C@@H](O)[C@]1(C)O	%	2.66
Cc1onc(-c2c(Cl)cccc2Cl)c1C(=O)N[C@@H]1C(=O)N2[C@@H]1SC(C)(C)[C@@H]2C(=O)O	%	2.27
OC1(c2ccc(Cl)c(C(F)(F)F)c2)CCN(CCCC(c2ccc(F)cc2)c2ccc(F)cc2)CC1	%	-7.48
Cc1nc(Nc2ncc(C(=O)Nc3c(C)cccc3Cl)s2)cc(N2CCN(CCO)CC2)n1	%	2.41
CN1CCC[C@@H]1CCO[C@](C)(c1ccccc1)c1ccc(Cl)cc1	%	2.52
CCCc1cc(=O)[nH]c(=S)[nH]1	%	0.156
NS(=O)(=O)c1cc2c(cc1Cl)NCNS2(=O)=O	%	0.531

----------
System: HGGX6 (H3.3 G34R paediatric high-grade glioma line)
Assay: growth inhibition (% activity, log2 RLU normalised to DMSO / staurosporine); higher = more growth inhibition
Conditions: 33 µM

Molecule	Target Desc	growth inhibition, %
C=C[C@]1(C)C[C@@H](OC(=O)CSC(C)(C)CNC(=O)[C@H](N)C(C)C)[C@]2(C)[C@H](C)CC[C@]3(CCC(=O)[C@H]32)[C@@H](C)[C@@H]1O	HGGX6	4.36
CCn1cc(C(=O)O)c(=O)c2cnc(N3CCCC3)nc21	HGGX6	0.0128
CCN1CCN(C(=O)NC(C(=O)NC2C(=O)N3C(C(=O)O)=C(CSc4nnnn4C)CSC23)c2ccc(O)cc2)C(=O)C1=O (stereo not given)	HGGX6	-2.32
Cn1c(CNc2ccc(C(=N)N)cc2)nc2cc(C(=O)N(CCC(=O)O)c3ccccn3)ccc21	HGGX6	-1.53
CC(=O)Nc1ccccc1	HGGX6	-0.159
C[C@@H](Oc1cc(-c2cnn(C3CCNCC3)c2)cnc1N)c1c(Cl)ccc(F)c1Cl	HGGX6	13.5
O=C(O)C1(C(=O)O)CCC1.[NH2-].[NH2-].[Pt+2]	HGGX6	-4.21
COc1c(C)c2c(c(O)c1C/C=C(\C)CCC(=O)OCCN1CCOCC1)C(=O)OC2	HGGX6	15.1
O=C(O)CCNC(=O)c1ccccc1	HGGX6	0.906
CCOC(=O)CC(=O)N1CCSC1COc1ccccc1OC (stereo not given)	HGGX6	2.78

----------
Reported values of growth inhibition for individual entries
Tested on: SUDIPGIV (diffuse intrinsic pontine glioma line)
Assay: growth inhibition (% activity, log2 RLU normalised to DMSO / staurosporine); higher = more growth inhibition
Details: 33 µM
Parameter: growth inhibition (%)

Compound	Observed
Nc1c2c(nc3ccccc13)CCCC2	1.29
Cc1cc(NC(=O)C2=C(O)c3ccccc3S(=O)(=O)N2C)no1	-5.37
CCOC(CN1CCN(CC(C)C(=O)c2ccccc2)CC1)c1ccccc1 (centres undefined)	-1.87
CN1c2cc(O)c(N=NC(N)=O)cc2CC1S(=O)(=O)O (centres undefined)	-0.34
CC(C)NCC(O)COc1cccc2ccccc12 (centres undefined)	-1.1
COc1ccc2c(c1OC)C(=O)O[C@@H]2[C@H]1c2c(cc3c(c2OC)OCO3)CCN1C	-0.28
O=C1CCC(N2C(=O)c3ccccc3C2=O)C(=O)N1 (centres undefined)	-2.51
CC(C(=O)O)c1cccc(C(=O)c2ccccc2)c1 (centres undefined)	-5.26
COc1ccc2cc([C@H](C)C(=O)O)ccc2c1	-2.72
C=C1/C(=C\C=C2/CCC[C@]3(C)[C@@H]([C@H](C)/C=C/[C@H](C)C(C)C)CC[C@@H]23)C[C@@H](O)C[C@@H]1O	0.335
N#CC(c1ccc(Cl)cc1)c1c(Cl)cc(-n2ncc(=O)[nH]c2=O)cc1Cl (centres undefined)	-2.27
N=c1nc(N2CCCCC2)cc(N)n1O	-0.657
CO[C@H]1C[C@@H]2CC[C@@H](C)[C@@](O)(O2)C(=O)C(=O)N2CCCC[C@H]2C(=O)O[C@H]([C@H](C)C[C@@H]2CC[C@@H](O)[C@H](OC)C2)CC(=O)[C@H](C)/C=C(\C)[C@@H](O)[C@@H](OC)C(=O)[C@H](C)C[C@H](C)/C=C/C=C/C=C/1C	4.5
COc1cc2nc(N(C)CCCNC(=O)C3CCCO3)nc(N)c2cc1OC (centres undefined)	-0.994
C[C@H]1[C@H](NC(=O)/C(=N\OC(C)(C)C(=O)O)c2csc(N)n2)C(=O)N1S(=O)(=O)O	1.35
CC(=O)NS(=O)(=O)c1ccc(NC(=O)c2ccccc2C(=O)O)cc1	-2.4
CC(=O)OCC(=O)[C@@]12N=C(C)O[C@@H]1C[C@H]1[C@@H]3CCC4=CC(=O)C=C[C@]4(C)[C@H]3[C@@H](O)C[C@@]12C	-3.7
Cc1c(C(=O)NN2CCCCC2)nn(-c2ccc(Cl)cc2Cl)c1-c1ccc(Cl)cc1	-1.46
O=c1[nH]c(=O)n([C@H]2C[C@H](O)[C@@H](CO)O2)cc1I	-1.37

----------
Test system: HGGX39 (paediatric high-grade glioma line)
Assay: growth inhibition (% activity, log2 RLU normalised to DMSO / staurosporine); higher = more growth inhibition
Conditions: 33 µM

Mol	growth inhibition [%]
C1N2CN3CN1CN(C2)C3	3.89
CC(C)n1c(/C=C/[C@@H](O)C[C@@H](O)CC(=O)O)c(-c2ccc(F)cc2)c2ccccc21	18.7
N#Cc1c(N(CC(=O)O)CC(=O)O)sc(C(=O)O)c1CC(=O)O	1.34
CCOC(=O)[C@H](CCc1ccccc1)N[C@@H](C)C(=O)N1[C@H](C(=O)O)C[C@@H]2CCC[C@@H]21	-4.08
CCN(CC)CCOC(=O)C(c1ccccc1)c1ccccc1	2.96

----------
System: DIPGX29 (H3.3 K27M diffuse intrinsic pontine glioma line)
Test: growth inhibition (% activity, log2 RLU normalised to DMSO / staurosporine); higher = more growth inhibition
Details: 33 µM
Below is a list of entries, each paired with its recorded growth inhibition value.

Compound	growth inhibition, %
CN(C)CCN(Cc1cccs1)c1ccccn1	1.96
CCC(CC)[C@H](NC(C)=O)[C@@H]1[C@H](O)[C@@H](C(=O)O)C[C@H]1NC(=N)N	-0.417
NC12CC3CC(CC(C3)C1)C2	0.311
COc1ccc2cccc(CCNC(C)=O)c2c1	-3.08
NC(CO)C(=O)NNCc1ccc(O)c(O)c1O (stereo unspecified)	-0.675
CN(C)[C@@H](CCOc1cccc2ccccc12)c1ccccc1	10.6

----------
Tested on: SUDIPGXIII (diffuse intrinsic pontine glioma line)
Assay: growth inhibition (% activity, log2 RLU normalised to DMSO / staurosporine); higher = more growth inhibition
Settings: 33 µM
Measured growth inhibition of individual entries

Compound	growth inhibition [%]
C#C[C@]1(O)CC[C@H]2[C@@H]3CCc4cc(O)ccc4[C@H]3CC[C@@]21C	0.6
Cc1nc(Nc2ncc(C(=O)Nc3c(C)cccc3Cl)s2)cc(N2CCN(CCO)CC2)n1	2.8
CN(C)C/C=C/C(=O)Nc1cc2c(Nc3ccc(F)c(Cl)c3)ncnc2cc1O[C@H]1CCOC1	0.97
CCOC(=O)C1=C(C)NC(C)=C(C(=O)OC)C1c1cccc([N+](=O)[O-])c1 (configuration not stated)	2.39
N=C(N)N/N=C/c1c(Cl)cccc1Cl	1.52
N[C@@H](CSCCCO)C(=O)O	-0.641
CC(C)(C)CC(C)(C)c1ccc(O)c(Cc2ccc(Cl)cc2Cl)c1	3.25
C=CC(=O)N1CCC[C@@H](n2nc(-c3ccc(Oc4ccccc4)cc3)c3c(N)ncnc32)C1	-9.86
CCCN(CCC)CCc1cccc2c1CC(=O)N2	-0.826
Clc1ccc(COC(Cn2ccnc2)c2ccc(Cl)cc2Cl)cc1 (configuration not stated)	7.66
C[C@@H](NCCCc1cccc(C(F)(F)F)c1)c1cccc2ccccc12	0.33
OCCN(CCO)c1nc(N2CCCCC2)c2nc(N(CCO)CCO)nc(N3CCCCC3)c2n1	1.36
CC(=O)Nc1ncc([N+](=O)[O-])s1	11.8
C=CC[N+]1([C@H]2C[C@H]3[C@@H]4CC[C@H]5C[C@H](O)[C@@H](N6CCOCC6)C[C@]5(C)[C@H]4CC[C@]3(C)[C@H]2OC(C)=O)CCCC1	1.02
CCCCCCCCCCOc1cc2c(O)c(C(=O)OCC)cnc2cc1OCC	-1.19
N=C(N=C(N)N)N1CCOCC1	-0.103
Cc1ccc(NC(=O)c2ccc(CN3CCN(C)CC3)cc2)cc1Nc1nc(-c2cccnc2)cs1	2.08
O=C(O)c1cn(C2CC2)c2cc(N3CCNCC3)c(F)cc2c1=O	-1.57
CN(Cc1cnc2nc(N)nc(N)c2n1)c1ccc(C(=O)N[C@@H](CCC(=O)O)C(=O)O)cc1	0.468
CCN1CCCC1CNC(=O)c1cc(S(=O)(=O)CC)c(N)cc1OC (configuration not stated)	-0.464
CC(C)CC(N)=O	-12.8
NC(=O)C(c1ccccc1)(c1ccccc1)[C@@H]1CCN(CCc2ccc3c(c2)CCO3)C1	0.646
